# Test system: GRE reporter gene in A549 cells
# measurement_protocol: GRE reporter gene assay in A549 cells (MMTV-Luc)
# Type: cell-based
# condition_label: Homo sapiens, 24 h
pEC50: −log10 of the molar value.
pEC50 of 8 or higher: Fulfilled. Under 8: Not fulfilled.

Before answering, review these 4 worked examples.
C[C@]12C=CC(=O)C=C1CC[C@@H]1[C@@H]2[C@@H](O)C[C@@]2(C)[C@H]1C[C@H]1O[C@@H](c3ccc(Cc4cccc(N)c4)cc3)O[C@]12C(=O)CO [A-A, reference compound] ... Fulfilled
C[C@]12C=CC(=O)C=C1CC[C@@H]1[C@@H]2[C@@H](O)C[C@@]2(C)[C@H]1C[C@H]1O[C@@H](c3ccc(C(F)(F)c4cccc(N)c4)cc3)O[C@]12C(=O)CO ... Fulfilled
C[C@]12C=CC(=O)C=C1CC[C@@H]1[C@@H]2[C@@H](O)C[C@@]2(C)[C@H]1C[C@H]1O[C@@H](c3ccc(Cc4cccc5c(N)cccc45)cc3)O[C@]12C(=O)CO ... Fulfilled
C[C@]12C=CC(=O)C=C1CC[C@H]1[C@@H]3C[C@H]4O[C@@H](c5ccc(C(=O)c6cccc(N)c6)cc5)O[C@@]4(C(=O)CO)[C@@]3(C)C[C@H](O)[C@@]12F ... Fulfilled

Below: the item to evaluate.
Problem: In plain terms: is recorded pEC50 at least 8 for C[C@]12C=CC(=O)C=C1CC[C@@H]1[C@@H]2[C@@H](O)C[C@@]2(C)[C@H]1C[C@H]1O[C@@H](c3ccc(-c4ccc(-c5cccc(N)c5)cc4)cc3)O[C@]12C(=O)CO ?
Solution: Not fulfilled

====

# measured_target: human recombinant GR (Homo sapiens, UniProt P04150)
# Sequence (P04150 whole entry): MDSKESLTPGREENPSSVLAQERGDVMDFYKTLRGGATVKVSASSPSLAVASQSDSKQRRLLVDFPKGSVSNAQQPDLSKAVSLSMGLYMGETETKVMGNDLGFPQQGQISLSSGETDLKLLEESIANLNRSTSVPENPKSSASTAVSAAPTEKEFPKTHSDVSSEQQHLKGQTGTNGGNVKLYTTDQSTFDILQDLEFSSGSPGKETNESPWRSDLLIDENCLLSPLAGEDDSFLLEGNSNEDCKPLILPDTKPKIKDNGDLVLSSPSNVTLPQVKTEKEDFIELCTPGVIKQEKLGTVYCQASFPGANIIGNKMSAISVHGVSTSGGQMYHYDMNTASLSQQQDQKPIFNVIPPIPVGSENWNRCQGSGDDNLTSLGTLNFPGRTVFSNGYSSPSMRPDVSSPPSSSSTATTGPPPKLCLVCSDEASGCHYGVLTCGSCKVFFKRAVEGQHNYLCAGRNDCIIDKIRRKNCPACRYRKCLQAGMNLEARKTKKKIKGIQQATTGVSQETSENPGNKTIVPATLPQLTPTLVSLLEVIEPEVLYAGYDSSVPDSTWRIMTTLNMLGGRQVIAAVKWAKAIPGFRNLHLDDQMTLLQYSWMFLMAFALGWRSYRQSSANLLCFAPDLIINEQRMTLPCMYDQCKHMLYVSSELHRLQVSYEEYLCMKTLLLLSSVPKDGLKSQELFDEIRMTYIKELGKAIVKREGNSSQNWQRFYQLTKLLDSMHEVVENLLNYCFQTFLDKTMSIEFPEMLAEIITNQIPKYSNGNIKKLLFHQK
# measurement_protocol: human glucocorticoid NHR (radiolabeled agonist) binding assay
# condition_label: competition with 5 nM [3H]dexamethasone, 4° C., 24 h
Labelling: IC50 reported below 4 nM becomes Yes; at or above becomes No.

Before answering, review these 3 worked examples.
C[C@]12C=CC(=O)C=C1CC[C@H]1[C@@H]3C[C@H]4O[C@@H](c5ccc(C(=O)c6cccc(N)c6)cc5)O[C@@]4(C(=O)CO)[C@@]3(C)C[C@H](O)[C@@]12F ... No
C[C@]12C=CC(=O)C=C1CC[C@@H]1[C@@H]2[C@@H](O)C[C@@]2(C)[C@H]1C[C@H]1O[C@@H](c3ccc(C(=O)c4cccc(N)c4)cc3)O[C@]12C(=O)CO ... No
C[C@]12C=CC(=O)C=C1CC[C@@H]1[C@@H]2[C@@H](O)C[C@@]2(C)[C@H]1C[C@H]1O[C@@H](c3ccc(-c4ccc(-c5cccc(N)c5)cc4)cc3)O[C@]12C(=O)CO ... No

Problem: Just wondering, is IC50 of C[C@]12C=CC(=O)C=C1CC[C@@H]1[C@@H]2[C@@H](O)C[C@@]2(C)[C@H]1C[C@H]1O[C@@H](c3ccc(Cc4cccc5c(N)cccc45)cc3)O[C@]12C(=O)CO below 4 nM?
Solution: Yes

Problem: Just wondering, is IC50 of C[C@]12C=CC(=O)C=C1CC[C@@H]1[C@@H]2[C@@H](O)C[C@@]2(C)[C@H]1C[C@H]1O[C@@H](c3ccc(C(F)(F)c4cccc(N)c4)cc3)O[C@]12C(=O)CO below 4 nM?
Solution: Yes

Ref: patent US20240189438A1
